Quantity: melting point

Compound	Quantity	Value Observed
CC(C)n1nc(-c2sc(NC(=O)CNCCCN3CCCC3=O)nc2-c2ccccc2)ccc1=O.Cl	melting point	207 to 209 °C
CC(C)NC(=O)c1nc(-c2cccc(Cl)c2)c(-c2ccc(=O)n(C(C)C)n2)s1 [Example 187]	melting point	105 to 106 °C
CC(C)n1nc(-c2sc(C(=O)NC3CC3)nc2-c2ccccc2F)ccc1=O [Example 196]	melting point	133.5 to 135 °C
CC(C)n1nc(-c2sc(C(=O)NCc3ccccn3)nc2-c2ccccc2F)ccc1=O [Example 207]	melting point	190 to 191 °C
CC(C)n1nc(-c2sc(C(=O)NC3CC3)nc2-c2cccc(F)c2)ccc1=O [Example 197]	melting point	145.5 to 147 °C

Your task in this section: give melting point for each listed record.
1. COCCn1nc(-c2sc(C(=O)NCc3ccccn3)nc2-c2ccccc2)ccc1=O [Example 206]
2. COCCn1nc(-c2sc(N)nc2-c2ccccc2)ccc1=O [Example 87]

-- reply
1. 168 to 169.5 °C
2. 208 to 209.5 °C
